- Assay info: Cytotoxicity against human A172 cells at 10 uM after 48 hrs by SRB assay
- Format: functional
- Condition context: A 172, 48 h
Result type: inhibition at 10 µM (%)
Numbers only, in %.

See these solved cases before continuing.
smiles_representation=COc1ccc(C(=O)/C=C/c2nccc3c4ccccc4n(C)c23)cc1 value_measured=0.18
smiles_representation=CCn1c2ccccc2c2ccnc(/C=C/C(=O)c3cc(OC)c(OC)c(OC)c3)c21 value_measured=81.1
smiles_representation=CCn1c2ccccc2c2ccnc(/C=C/C(=O)c3ccccc3)c21 value_measured=80.5
smiles_representation=COc1cc(C(=O)/C=C/c2nccc3c2[nH]c2ccccc23)cc(OC)c1OC value_measured=65
smiles_representation=COc1cccc2c1C(=O)c1c(O)c3c(c(O)c1C2=O)C[C@@](O)(C(=O)CO)C[C@@H]3O[C@H]1C[C@H](N)[C@H](O)[C@H](C)O1 value_measured=67.6
smiles_representation=COc1ccc(C(=O)/C=C/c2nccc3c2[nH]c2ccccc23)cc1OC value_measured=74.3
smiles_representation=COc1cc(C(=O)/C=C/c2nccc3c4ccccc4n(C)c23)cc(OC)c1OC value_measured=38.8
smiles_representation=CCn1c2ccccc2c2ccnc(/C=C/C(=O)c3ccc(C)cc3)c21 value_measured=26.6
smiles_representation=O=C(/C=C/c1nccc2c1[nH]c1ccccc12)c1ccccc1 value_measured=78.4
smiles_representation=Cn1c2ccccc2c2ccnc(/C=C/C(=O)c3ccccc3)c21 value_measured=75.5

Hey, can you go through the list below and give me inhibition at 10 µM for every item?
1. Cc1ccc(C(=O)/C=C/c2nccc3c2[nH]c2ccccc23)cc1
2. CCn1c2ccccc2c2ccnc(/C=C/C(=O)c3ccc(OC)cc3)c21

1: 60.5; 2: 39.2

Hey, can you go through the list below and give me inhibition at 10 µM for every item?
1. COc1ccc(C(=O)/C=C/c2nccc3c2[nH]c2ccccc23)cc1
2. O=C(/C=C/c1nccc2c1[nH]c1ccccc12)c1ccc(F)cc1
3. COc1ccc(C(=O)/C=C/c2nccc3c4ccccc4n(C)c23)cc1OC
4. CCn1c2ccccc2c2ccnc(/C=C/C(=O)c3ccc(OC)c(OC)c3)c21
5. Cc1ccc(C(=O)/C=C/c2nccc3c4ccccc4n(C)c23)cc1
6. O=C(/C=C/c1nccc2c1[nH]c1ccccc12)c1ccc(Br)cc1
7. O=C(/C=C/c1nccc2c1[nH]c1ccccc12)c1ccc(Cl)cc1

[77.2, 16.2, 15.5, 70.1, 19.2, 5.41, 75.8]

---

- Tested on: A549
- Assay info: Cytotoxicity against human A549 cells at 10 uM after 48 hrs by SRB assay
- Format: functional
- Condition context: A549, 48 h
Returns 1.0 if the recorded inhibition at 10 µM is greater than or equal to 10%, and 0.0 otherwise.

Here's what some known entries look like.
smiles_representation=COc1cc(C(=O)/C=C/c2nccc3c4ccccc4n(C)c23)cc(OC)c1OC qualitative_label=1.0
smiles_representation=CCn1c2ccccc2c2ccnc(/C=C/C(=O)c3cc(OC)c(OC)c(OC)c3)c21 qualitative_label=1.0
smiles_representation=Cn1c2ccccc2c2ccnc(/C=C/C(=O)c3ccccc3)c21 qualitative_label=1.0
smiles_representation=CCn1c2ccccc2c2ccnc(/C=C/C(=O)c3ccc(OC)cc3)c21 qualitative_label=1.0
smiles_representation=COc1ccc(C(=O)/C=C/c2nccc3c4ccccc4n(C)c23)cc1 qualitative_label=0.0

Pending molecule:
Given the entry O=C(/C=C/c1nccc2c1[nH]c1ccccc12)c1ccc(Cl)cc1 , answer whether its inhibition at 10 µM meets or surpasses 10%.
0.0

---

- Test system: A549
- Assay info: Cytotoxicity against human A549 cells at 10 uM after 48 hrs by SRB assay
- Type: functional
- Condition context: A549, 48 h
Result type: inhibition at 10 µM (%)
One number for each entry, in %.

smiles_representation=Cc1ccc(C(=O)/C=C/c2nccc3c2[nH]c2ccccc23)cc1 unit_symbol=% value_measured=9.91
smiles_representation=O=C(/C=C/c1nccc2c1[nH]c1ccccc12)c1ccc(F)cc1 unit_symbol=% value_measured=6.73
smiles_representation=CCn1c2ccccc2c2ccnc(/C=C/C(=O)c3ccccc3)c21 unit_symbol=% value_measured=12.5
smiles_representation=O=C(/C=C/c1nccc2c1[nH]c1ccccc12)c1ccccc1 unit_symbol=% value_measured=11.7
smiles_representation=COc1cc(C(=O)/C=C/c2nccc3c2[nH]c2ccccc23)cc(OC)c1OC unit_symbol=% value_measured=73.4
smiles_representation=COc1ccc(C(=O)/C=C/c2nccc3c4ccccc4n(C)c23)cc1OC unit_symbol=% value_measured=19.6
smiles_representation=COc1ccc(C(=O)/C=C/c2nccc3c2[nH]c2ccccc23)cc1OC unit_symbol=% value_measured=84.7

Proceed to the following item.
Give a short answer stating reported inhibition at 10 µM for CCn1c2ccccc2c2ccnc(/C=C/C(=O)c3ccc(OC)c(OC)c3)c21 .
35.6
